Assay: physchem
For each record, write down the corresponding logP.

Inquiry: Field request: logP | item: O=C(O)CCCCCCCCCCCCCCCCC(=O)O [ERS ODDA (C18), octadecanedioic acid]
Reply text: 3

Inquiry: Field request: logP | item: O=C(O)CCCCCCCC(=O)O [Azelaic (C9), azelaic acid, reference compound]
Reply text: 2.01

Cited source for all entries: patent US9347013B2
